- Tested on: Saccharomyces cerevisiae
- Protocol text: Compound was evaluated for antifungal activity against Saccharomyces cerevisiae IAM 4861 as diameter of inhibition zone at a concentration 1 ug/disk and showed incomplete inhibition
- Format: functional
Entries and their Inhibition zone values follow.
Entry rule: numbers only, all in mm.

Example entries and their recorded answers appear below.
Cpd smiles | Inhibition zone, mm
COC(=O)\C=C(OC)/C(C)=C(\C=C\c1cccs1)OC | 31
COC(=O)\C=C(OC)/C(C)=C(\C=C\c1ccccc1)OC | 30
CO\C=C(C(=O)OC)/C(C)=C(\C=C\c1ccccc1)OC | 39
COC(=O)C=C(OC)/C(C)=C(\C=C\c1ccc(OC)c(OC)c1)OC | 12
COC(=O)/C=C(/OC)[C@H](C)[C@H](/C=C/c1ccccc1)OC | 25

Now for the compound whose Inhibition zone we want.
Req: Reported Inhibition zone for COC(=O)\C=C(OC)/C(C)=C(\C=C\c1ccc2ccccc2c1)OC : what is it?
Resp: 15

###

Entries and their Inhibition zone values follow.
- System: Candida albicans
- Protocol text: Compound was evaluated for antifungal activity against Candida albicans IFO 1594 as diameter of inhibition zone at a concentration 1 ug/disk and showed incomplete inhibition
- Type: functional
Entry rule: numbers only, all in mm.

Example entries and their recorded answers appear below.
Cpd smiles | Value units | Inhibition zone
COC(=O)\C=C(OC)/C(C)=C(\C=C\c1cccs1)OC | mm | 16
CO\C=C(C(=O)OC)/C(C)=C(\C=C\c1ccccc1)OC | mm | 32

Req: Reported Inhibition zone for COC(=O)\C=C(OC)/C(C)=C(\C=C\c1ccccc1)OC : what is it?
Resp: 27

Req: Reported Inhibition zone for COC(=O)\C=C(OC)/C(C)=C(\C=C\c1ccc2ccccc2c1)OC : what is it?
Resp: 8
